target: Ectonucleotide pyrophosphatase/phosphodiesterase family member 1 (Homo sapiens); assay: Competitive inhibition of human NPP1 expressed in African green monkey COS7 cells using ATP as substrate after 20 mins by Michaelis-Menten plot analysis; format: cell-based, COS-7
READOUT: Ki (nM)
One number for each entry, in nM.

input: # Ki lookup, item `Nc1c(S(=O)(=O)O)cc(Nc2ccc(Nc3nc(Cl)nc(Nc4cccc(S(=O)(=O)O)c4)n3)c(S(=O)(=O)O)c2)c2c1C(=O)c1ccccc1C2=O`
output: 520

---

biological target: Ectonucleotide pyrophosphatase/phosphodiesterase family member 1 (Homo sapiens, UniProt P22413); test: Inhibition of human recombinant NPP1 expressed in insect SF9 cells using ATP as substrate preincubated with substrate followed by protein addition and subsequent incubation for 30 mins by capillary electrophoresis
Provide the recorded Ki for the entries that follow.
One number for each entry, in µM.

input: # Ki lookup, item `O=c1/c(=C/c2ccc([N+](=O)[O-])o2)sc2nc3ccccc3n12`
output: 1.07

input: Subsequent entry: `O=c1/c(=C/c2ccc(N3CCOCC3)cc2)sc2nc3ccccc3n12`
output: 8.91

input: Subsequent entry: `CN(C)c1ccc(/C=c2\sc3nc4ccccc4n3c2=O)o1`
output: 4.21

input: Subsequent entry: `O=c1/c(=C/c2ccco2)sc2nc3ccccc3n12`
output: 0.981

Hi, could you look up Ki for each item in my list?
1. Cc1ccc(/C=c2\sc3nc4ccccc4n3c2=O)o1
2. CC1CCN(c2cc(N3CCC(C)CC3)c([N+](=O)[O-])cc2/C=c2/sc3nc4ccccc4n3c2=O)CC1

output:
[2.11, 8.56]

---

assay: Chemical stability of the compound assessed as compound remaining at pH 9 at 37 degC after 8 hrs by HPLC-MS analysis; type: physicochemical; details: buffer, read-out: Stability
READOUT: remaining at 8 h (%)
Answers are plain numbers, in %.

input: # remaining at 8 h lookup, item `O=c1/c(=C/c2ccc(I)o2)sc2nc3ccccc3n12`
output: 70.5

---

target: Ectonucleotide pyrophosphatase/phosphodiesterase family member 1 (Homo sapiens, UniProt P22413); assay: Inhibition of human recombinant NPP1 expressed in insect SF9 cells using ATP as substrate preincubated with substrate followed by protein addition and subsequent incubation for 30 mins by capillary electrophoresis
READOUT: Ki

input: # Ki lookup, item `O=c1/c(=C/c2ccc(Cl)cc2)sc2nc3ccccc3n12`
output: > 10 µM

input: Subsequent entry: `O=c1[nH]c2ccccc2cc1/C=c1/sc2nc3ccccc3n2c1=O`
output: > 10 µM

input: Subsequent entry: `O=c1/c(=C/c2ccc(I)o2)sc2nc3ccccc3n12`
output: 0.467 µM

Hi, could you look up Ki for each item in my list?
1. O=c1/c(=C/c2ccccc2)sc2nc3ccccc3n12
2. O=c1/c(=C/c2cccc(OCc3ccccc3)c2)sc2nc3ccccc3n12

output:
1. > 10 µM
2. > 10 µM

---

assay: Chemical stability of the compound assessed as compound remaining at pH 9 at 37 degC after 24 hrs by HPLC-MS analysis; format: physicochemical; conditions: buffer, read-out: Stability
READOUT: remaining at 24 h (%)
Answers are plain numbers, in %.

input: # remaining at 24 h lookup, item `O=c1/c(=C/c2ccc(I)o2)sc2nc3ccccc3n12`
output: 27.4

---

experiment: Chemical stability of the compound assessed as compound remaining at pH 9 at 25 degC after 24 hrs by HPLC-MS analysis; assay type: physicochemical; details: buffer, read-out: Stability
READOUT: remaining at 24 h (%)
Give bare numbers, in %.

input: # remaining at 24 h lookup, item `O=c1/c(=C/c2ccc(I)o2)sc2nc3ccccc3n12`
output: 52.4

---

Target: Ectonucleotide pyrophosphatase/phosphodiesterase family member 1 (Homo sapiens) (UniProt P22413)
Sequence (whole entry): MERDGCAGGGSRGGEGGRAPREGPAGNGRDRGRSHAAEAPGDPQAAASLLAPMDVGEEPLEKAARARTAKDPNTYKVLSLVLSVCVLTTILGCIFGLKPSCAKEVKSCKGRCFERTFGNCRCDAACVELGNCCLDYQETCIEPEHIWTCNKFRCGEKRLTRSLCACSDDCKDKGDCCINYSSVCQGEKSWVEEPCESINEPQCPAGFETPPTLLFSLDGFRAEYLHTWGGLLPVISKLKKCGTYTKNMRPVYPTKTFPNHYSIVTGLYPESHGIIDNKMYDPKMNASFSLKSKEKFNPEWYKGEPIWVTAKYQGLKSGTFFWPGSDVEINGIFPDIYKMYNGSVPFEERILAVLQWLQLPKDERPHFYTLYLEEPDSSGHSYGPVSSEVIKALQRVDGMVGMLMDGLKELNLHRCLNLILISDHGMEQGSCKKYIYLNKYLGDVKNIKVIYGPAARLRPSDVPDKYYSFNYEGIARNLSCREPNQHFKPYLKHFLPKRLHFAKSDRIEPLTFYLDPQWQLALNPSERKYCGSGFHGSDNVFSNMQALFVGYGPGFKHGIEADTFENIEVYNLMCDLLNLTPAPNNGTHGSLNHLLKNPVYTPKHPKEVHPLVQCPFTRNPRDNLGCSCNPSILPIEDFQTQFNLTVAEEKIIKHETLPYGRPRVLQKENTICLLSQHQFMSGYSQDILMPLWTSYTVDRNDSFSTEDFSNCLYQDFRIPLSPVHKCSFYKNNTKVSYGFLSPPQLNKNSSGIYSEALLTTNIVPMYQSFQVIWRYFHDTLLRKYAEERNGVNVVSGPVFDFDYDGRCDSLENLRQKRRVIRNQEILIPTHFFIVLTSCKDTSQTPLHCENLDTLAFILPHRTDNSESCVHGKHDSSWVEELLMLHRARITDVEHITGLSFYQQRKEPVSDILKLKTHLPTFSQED
Assay: Inhibition of human recombinant NPP1 expressed in insect SF9 cells using ATP as substrate at 10 uM preincubated with substrate followed by protein addition and subsequent incubation for 30 mins by capillary electrophoresis
READOUT: inhibition (%)
Numbers only, in %.

input: # inhibition lookup, item `O=c1/c(=C/c2cccc(OCc3ccccc3)c2)sc2nc3ccccc3n12`
output: 10

Hi, could you look up inhibition for each item in my list?
1. O=c1/c(=C/c2ccccn2)sc2nc3ccccc3n12
2. O=c1/c(=C/c2ccc(-c3ccccc3)o2)sc2nc3ccccc3n12
3. O=c1/c(=C/c2ccc(Cl)cc2)sc2nc3ccccc3n12

output:
1. 39
2. 48
3. 32

Hi, could you look up inhibition for each item in my list?
1. O=c1/c(=C/c2cccs2)sc2nc3ccccc3n12
2. O=c1/c(=C/c2ccc(Sc3ccccc3)o2)sc2nc3ccccc3n12
3. O=c1/c(=C/c2cccc(Oc3ccccc3)c2)sc2nc3ccccc3n12

output:
1: 43; 2: 40; 3: 13

Hi, could you look up inhibition for each item in my list?
1. O=c1/c(=C/C=C/c2ccccc2)sc2nc3ccccc3n12
2. O=c1/c(=C\c2ccccc2)sc2nc3ccccc3n12
3. O=c1/c(=C/c2ccccc2)sc2nc3ccccc3n12
4. O=c1/c(=C/c2cccc(Cc3ccccc3)c2)sc2nc3ccccc3n12
5. O=c1/c(=C/c2ccc(I)cc2)sc2nc3ccccc3n12
6. Cc1ccc(/C=c2\sc3nc4ccccc4n3c2=O)cc1
7. COc1cc(/C=c2/sc3nc4ccccc4n3c2=O)ccc1OCc1nnn[nH]1
8. O=c1/c(=C\c2ccc3ccccc3c2)sc2nc3ccccc3n12

output:
1. 24
2. 10
3. 31
4. 11
5. 31
6. 28
7. 21
8. 24

Hi, could you look up inhibition for each item in my list?
1. C/C=c1\sc2nc3ccccc3n2c1=O
2. O=c1[nH]c2ccccc2cc1/C=c1/sc2nc3ccccc3n2c1=O

output:
1: 0; 2: 30

---

Target: Ectonucleotide pyrophosphatase/phosphodiesterase family member 1 (Homo sapiens)
Sequence (P22413 whole entry): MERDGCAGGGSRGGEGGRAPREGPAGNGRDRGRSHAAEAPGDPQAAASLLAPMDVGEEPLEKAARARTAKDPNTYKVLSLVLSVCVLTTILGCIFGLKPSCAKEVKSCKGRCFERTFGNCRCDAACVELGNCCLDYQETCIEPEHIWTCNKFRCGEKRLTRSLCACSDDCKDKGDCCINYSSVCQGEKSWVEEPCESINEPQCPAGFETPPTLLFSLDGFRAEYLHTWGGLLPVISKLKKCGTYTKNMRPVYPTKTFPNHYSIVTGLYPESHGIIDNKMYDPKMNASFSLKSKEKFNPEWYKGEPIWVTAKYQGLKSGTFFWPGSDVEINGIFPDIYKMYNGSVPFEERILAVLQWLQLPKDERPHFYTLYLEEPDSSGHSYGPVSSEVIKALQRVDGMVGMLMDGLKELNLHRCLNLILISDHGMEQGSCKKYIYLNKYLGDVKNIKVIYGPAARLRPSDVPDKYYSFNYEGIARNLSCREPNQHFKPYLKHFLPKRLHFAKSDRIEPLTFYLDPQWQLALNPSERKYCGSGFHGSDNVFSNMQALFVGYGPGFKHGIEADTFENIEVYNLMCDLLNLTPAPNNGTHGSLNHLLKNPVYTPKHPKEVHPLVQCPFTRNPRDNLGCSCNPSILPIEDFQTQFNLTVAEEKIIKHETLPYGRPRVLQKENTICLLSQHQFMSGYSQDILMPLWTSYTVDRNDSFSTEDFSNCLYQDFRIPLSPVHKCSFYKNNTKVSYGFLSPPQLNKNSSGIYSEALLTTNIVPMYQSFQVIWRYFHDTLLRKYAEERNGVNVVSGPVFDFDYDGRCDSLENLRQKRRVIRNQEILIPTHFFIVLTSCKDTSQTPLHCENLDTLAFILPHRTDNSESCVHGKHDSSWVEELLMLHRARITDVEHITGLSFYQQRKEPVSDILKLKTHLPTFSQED
Experiment: Competitive inhibition of human NPP1 transfected in HEK293 cells using p-Nph-5'-TMP as substrate preincubated for 3 mins followed by substrate addition measured after 15 mins by Cornish-Bowden plot analysis
READOUT: pKi
Give bare numbers, as −log10 of the molar value.

input: # pKi lookup, item `CCN(CC)c1ncnc2c1ncn2[C@@H]1O[C@H](COP(=O)(O)OP(=O)(O)C(Br)(Br)P(=O)(O)O)[C@@H](O)[C@H]1O`
output: 4.92
